- system.under.test: PDE4A (catalytic domain of PDE4A10) (Homo sapiens)
- Sequence (P27815 351-683): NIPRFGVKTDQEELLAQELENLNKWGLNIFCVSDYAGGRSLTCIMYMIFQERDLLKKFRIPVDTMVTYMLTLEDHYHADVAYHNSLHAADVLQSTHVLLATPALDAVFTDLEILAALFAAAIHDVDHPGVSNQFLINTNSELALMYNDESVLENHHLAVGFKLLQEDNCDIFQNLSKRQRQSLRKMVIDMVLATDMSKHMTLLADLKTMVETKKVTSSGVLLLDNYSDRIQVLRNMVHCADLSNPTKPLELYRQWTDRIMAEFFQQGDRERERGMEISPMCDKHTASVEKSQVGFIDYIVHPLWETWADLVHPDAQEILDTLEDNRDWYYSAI
recorded.endpoint: Ki

// query Given the entry CC(C)Cn1c(=O)n(C)c(=O)c2[nH]cnc21 , what Ki was observed with PDE4A (catalytic domain of PDE4A10) (Homo sapiens)?
// result 8.3 µM

Origin of values: paper PMC3745005
